Data origin: PubChem BioAssay AID1996

conditions: buffer; pH 7.4; 200.0 µM

- compound: "CC(=O)c1ccc(-c2ccc(C(=O)NCC(c3ccco3)N(C)C)o2)cc1 (centres undefined)"
  solubility kinetic: "> 55 µg/mL"
- compound: "Cc1ccc(CN2CCC(NC(=O)c3ccccc3)CC2)cc1"
  solubility kinetic: "> 46.3 µg/mL"
- compound: "O=C(CSc1cccc[n+]1[O-])NCCCc1ccccc1"
  solubility kinetic: "> 45.4 µg/mL"
- compound: "COc1cccc(OCC(=O)Nc2ccncc2)c1"
  solubility kinetic: "> 38.7 µg/mL"

----------
conditions: buffer; pH 7.4; 200.0 µM

- compound: "Cc1cccc(C)c1NC(=S)NCc1ccncc1"
  solubility kinetic: "> 40.7 µg/mL"
- compound: "Cc1cc(C(=O)OCC(=O)N(C)c2ccccc2)c2ccccc2n1"
  solubility kinetic: "> 50.2 µg/mL"
- compound: "O=C(O)CSc1cccnc1Sc1ccc(Cl)cc1"
  solubility kinetic: "> 46.8 µg/mL"
- compound: "Br.COc1ccccc1N1CCN(CCCCN2C(=O)c3ccccc3C2=O)CC1"
  solubility kinetic: "> 71.2 µg/mL"
- compound: "CC(NC(=O)c1c(F)cccc1Cl)c1ccc(-n2ccnc2)cc1 (configuration not stated)"
  solubility kinetic: "> 51.6 µg/mL"
- compound: "Cc1cccc(NC(=O)CN2C(=O)C(C)Oc3ccccc32)n1 (configuration not stated)"
  solubility kinetic: "> 46.7 µg/mL"
- compound: "COc1cccc(C2C([N+](=O)[O-])=C(N)Oc3cc(C)oc(=O)c32)c1 (configuration not stated)"
  solubility kinetic: "> 49.5 µg/mL"
- compound: "COc1c(C)cccc1C(=O)NCc1ccc2c(c1)OCO2"
  solubility kinetic: "> 44.9 µg/mL"
- compound: "CC1CCCC(C)N1C(=O)COC(=O)c1ccc(Br)o1 (configuration not stated)"
  solubility kinetic: "> 51.6 µg/mL"
- compound: "O=C(Cn1cncn1)N/N=C/c1ccccc1Cl"
  solubility kinetic: "> 39.6 µg/mL"
- compound: "Cn1nc(C(F)(F)F)c(-c2ccccc2)c1NC(=O)CCC(=O)O"
  solubility kinetic: "> 51.2 µg/mL"
- compound: "CCC(=O)c1c(NC(C)C)cc(C)oc1=O"
  solubility kinetic: "> 33.5 µg/mL"
